Molecular target: 5HT2C receptors (Homo sapiens, UniProt P28335)
Sequence (P28335 33-458): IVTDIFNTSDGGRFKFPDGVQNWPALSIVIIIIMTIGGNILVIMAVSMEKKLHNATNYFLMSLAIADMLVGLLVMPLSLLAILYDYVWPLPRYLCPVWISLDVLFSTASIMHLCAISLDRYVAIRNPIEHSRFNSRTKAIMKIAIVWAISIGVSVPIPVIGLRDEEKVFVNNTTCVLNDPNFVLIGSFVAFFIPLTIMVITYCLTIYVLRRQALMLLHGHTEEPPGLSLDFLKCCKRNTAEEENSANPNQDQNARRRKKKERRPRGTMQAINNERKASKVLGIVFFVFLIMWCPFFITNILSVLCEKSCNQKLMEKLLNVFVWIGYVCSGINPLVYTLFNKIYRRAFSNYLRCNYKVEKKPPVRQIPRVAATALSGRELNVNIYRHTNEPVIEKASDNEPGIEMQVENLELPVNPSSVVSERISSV
Test: Human 5-HT2C functional assay in 1321N1 cells (intracellular calcium, FLIPR)
Type: cell-based
Parameters: expressed in transfected cells; host or cells: 1321N1 cells
Conditions: 5-HT2c agonist activity, maximum calcium response
Exercise: for every item that follows, state its recorded EC50.
Answers are plain numbers, in nM.

Look over these answered cases.
COMPOUND | QUANTITY MEASURED | ASSAY VALUE
Cc1ccc(C)c(CN2C[C@H]3CNC(=O)c4ccccc4[C@@H]3C2)c1 (relative stereo) | EC50 | 8.85
O=C1NC[C@@H]2CN(Cc3cc(Cl)cc(Cl)c3)C[C@@H]2c2ccccc21 (relative stereo) | EC50 | 11.3
Cc1cc(C)cc(CN2C[C@H]3CNC(=O)c4ccccc4[C@@H]3C2)c1 (relative stereo) | EC50 | 5.22

Your task in this section: give EC50 for each listed record.
1. O=C1NC[C@@H]2CN(Cc3ccccc3Cl)C[C@H]2c2ccccc21 (relative stereo)
2. O=C1NC[C@@H]2CN(Cc3ccccc3)C[C@H]2c2cccc(F)c21 (relative stereo)

1. 32.9
2. 29

Note to self: EC50 recorded for O=S(=O)(c1cccc(F)c1)N1Cc2ccccc2[C@@H]2CNC[C@H]2C1 (relative stereo) was 13.2

* * *

Molecular target: 5HT2C receptors (Homo sapiens)
Experiment: Human 5-HT2C functional high throughput screening assay in CHO-K1 cells (calcium flux)
Format: cell-based
Parameters: expressed in transfected cells; host or cells: CHO-K1 cells
Settings: CHO-K1; 5-HT2C; maximum functional response as percentage relative to the effect of serotonin
Description: (iii) Human 5-HT2C and 5-HT2B Functional High Throughput Screening Assays in CHO-K1 Cells […] After incubation, the cell plates were transferred to FLIPR™ (MDS) and their fluorescence measurements were read at an excitation wavelength of 480 nm and an emission wavelength of 530 nm at 25° C. The baseline fluorescence was measured for the first 10 seconds and then 15 μL of 4× concentration of serotonin/test compound was added to the cells. […]
QUANTITY MEASURED: Emax

Look over these answered cases.
COMPOUND | Emax
CN1C[C@H]2CNC[C@@H]2c2ccc(F)cc2C1=O | > 120%
O=C1NC[C@@H]2CNC[C@H]2c2ccc(OCc3cccc(F)c3)cc21 (relative stereo) | > 120%
COc1ccc2c(c1)[C@H]1CNC[C@@H]1CC=C2 (relative stereo) | > 120%

Query Clc1cc(Br)c2c(c1)[C@@H]1CNC[C@@H]1CCO2 (relative stereo) on 5HT2C receptors (Homo sapiens); Emax returned: 60%

* * *

Exercise: for every item that follows, state its recorded log10(Ki).
Target: human serotonin 5-HT2c receptor (Homo sapiens)
Assay: Human 5-HT2C receptor radioligand binding assay (agonist site, [125I]DOI)
Conditions: 5-HT2c agonist site; transfected CHO cell membranes; 0.2 nM [125I](±)DOI
Reminder: these figures are log10 of reported Ki, in nM before transformation.

Look over these answered cases.
MOLECULE | QUANTITY MEASURED | ASSAY VALUE
O=C1NC[C@@H]2CN(Cc3ccccc3)C[C@@H]2c2c(F)cccc21 (relative stereo) | log10(Ki) | 2.46
O=C1NC[C@@H]2CN(Cc3ccccc3)C[C@H]2c2cc(Cl)ccc21 (relative stereo) | log10(Ki) | 2.04
O=C1NC[C@@H]2CNC[C@H]2c2c(Cl)cccc21 (relative stereo) | log10(Ki) | 2.23

Your task in this section: give log10(Ki) for each listed record.
1. O=C1NC[C@@H]2CN(Cc3ccccc3)C[C@H]2c2cc(F)ccc21 (relative stereo)
2. O=C1NC[C@@H]2CN(Cc3ccccc3)C[C@H]2c2cccc(F)c21 (relative stereo)
3. CN1C[C@H]2CN(S(=O)(=O)c3ccccc3)Cc3ccccc3[C@H]2C1 (relative stereo)
4. O=C1NC[C@H]2CNC[C@@H]2c2ccccc21
5. COc1ccccc1CN1C[C@H]2CNC(=O)c3ccccc3[C@@H]2C1 (relative stereo)

1: 2.15; 2: 1.49; 3: 1.81; 4: 0.98; 5: 1.85
